Pre-emerge Herbicidal Activity AMBEL (phytotoxicity rating, scale 0-100) reference
system: common ragweed (Ambrosia artemisizfolia L., AMBEL); experiment: Pre-emerge test, greenhouse herbicide activity screening; format: in vivo; details: 63 g ai/ha; pre-emerge; rated 14 days after application; 0 = no damage, 100 = complete death
quantity: Pre-emerge Herbicidal Activity AMBEL (phytotoxicity rating, scale 0-100)

[
  {
    "compound": "Cn1c(C(F)(F)F)cc(=O)n(-c2c(N)cc(OC(F)F)cc2F)c1=O",
    "measurement.target": "common ragweed (Ambrosia artemisizfolia L., AMBEL)",
    "value.measured": 30
  },
  {
    "compound": "COc1c(Cl)cc(F)c(-n2c(=O)cc(C(F)(F)F)n(C)c2=O)c1N(C)C",
    "measurement.target": "common ragweed (Ambrosia artemisizfolia L., AMBEL)",
    "value.measured": 50
  },
  {
    "compound": "COc1c(Cl)cc(F)c(-n2c(=O)cc(C(F)(F)F)n(C)c2=O)c1NC(=O)C(F)(F)F",
    "measurement.target": "common ragweed (Ambrosia artemisizfolia L., AMBEL)",
    "value.measured": 100
  },
  {
    "compound": "CCOC(=O)C(C)Nc1cc(Cl)cc(F)c1-n1c(=O)cc(C(F)(F)F)n(C)c1=O (stereo not shown)",
    "measurement.target": "common ragweed (Ambrosia artemisizfolia L., AMBEL)",
    "value.measured": 100
  },
  {
    "compound": "CCc1ccc(C(=O)Nc2c(OC)c(Cl)cc(F)c2-n2c(=O)cc(C(F)(F)F)n(C)c2=O)cc1",
    "measurement.target": "common ragweed (Ambrosia artemisizfolia L., AMBEL)",
    "value.measured": 100
  },
  {
    "compound": "Cn1c(C(F)(F)F)cc(=O)n(-c2c(F)cc(Cl)c(OC3CCCC3)c2N)c1=O",
    "measurement.target": "common ragweed (Ambrosia artemisizfolia L., AMBEL)",
    "value.measured": 0
  },
  {
    "compound": "COC(=O)C(=O)Nc1c(OC)c(Cl)cc(F)c1-n1c(=O)cc(C(F)(F)F)n(C)c1=O",
    "measurement.target": "common ragweed (Ambrosia artemisizfolia L., AMBEL)",
    "value.measured": 0
  }
]
